Measured values drawn from patent US12275684B2 for this set.

experiment: Placebo controlled, dose escalation pharmacokinetic study of oral (Z)-Endoxifen capsules (serum endoxifen; incl. accumulation ratios and dose linearity); format: in vivo, human; details: female, human, serum, oral, 1 mg; Day 1 hr 8; read-out: Serum concentration, Max
measure: concentration at 8 h

## Input Reported concentration at 8 h for CC/C(=C(\c1ccc(O)cc1)c1ccc(OCCNC)cc1)c1ccccc1 [(Z)-Endoxifen] : what is it?
## Output 32.1 nM

###

assay: Placebo controlled, dose escalation pharmacokinetic study of oral (Z)-Endoxifen capsules (serum endoxifen; incl. accumulation ratios and dose linearity); format: in vivo, human; conditions: female, human, serum, oral, 1 mg, Day 21; 1 mg; N = 5; read-out: Cmax, GeoMean
measure: Cmax (ng/mL)
Report the figure in ng/mL without appending any unit label.

## Input Reported Cmax for CC/C(=C(\c1ccc(O)cc1)c1ccc(OCCNC)cc1)c1ccccc1 [(Z)-Endoxifen] : what is it?
## Output 23.3
